B1: glmS ribozyme (parent)
chain: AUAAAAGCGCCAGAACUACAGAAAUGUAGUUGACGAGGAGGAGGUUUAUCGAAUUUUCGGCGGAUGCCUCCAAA

- Variants of: B1
- EXPERIMENT: KM; higher = weaker cofactor use; RNA array
- EXPERIMENTAL_SETUP: with glucosamine-6-phosphate
KM values for the variants below.
ASSAY_ENDPOINT: KM

{"SEQUENCE_VARIANT": "A14G G43U", "ASSAY_ENDPOINT": "KM", "READING": "2770 µM"}
{"SEQUENCE_VARIANT": "A12G G40A", "ASSAY_ENDPOINT": "KM", "READING": "4040 µM"}
{"SEQUENCE_VARIANT": "G13U C68A C70G", "ASSAY_ENDPOINT": "KM", "READING": "139 µM"}
{"SEQUENCE_VARIANT": "A39C A48C", "ASSAY_ENDPOINT": "KM", "READING": "3440 µM"}
{"SEQUENCE_VARIANT": "G40C C71U", "ASSAY_ENDPOINT": "KM", "READING": "1730 µM"}
{"SEQUENCE_VARIANT": "U45C A48U", "ASSAY_ENDPOINT": "KM", "READING": "628 µM"}
{"SEQUENCE_VARIANT": "C16U A33U", "ASSAY_ENDPOINT": "KM", "READING": "2420 µM"}
{"SEQUENCE_VARIANT": "G41U U65A", "ASSAY_ENDPOINT": "KM", "READING": "1090 µM"}
{"SEQUENCE_VARIANT": "A39U A42C", "ASSAY_ENDPOINT": "KM", "READING": "3030 µM"}
{"SEQUENCE_VARIANT": "A33C A39U", "ASSAY_ENDPOINT": "KM", "READING": "4000 µM"}
{"SEQUENCE_VARIANT": "A14G A52U", "ASSAY_ENDPOINT": "KM", "READING": "3890 µM"}
{"SEQUENCE_VARIANT": "A6G C67A", "ASSAY_ENDPOINT": "KM", "READING": "3130 µM"}
{"SEQUENCE_VARIANT": "A33C U54A", "ASSAY_ENDPOINT": "KM", "READING": "7810 µM"}
{"SEQUENCE_VARIANT": "U31G", "ASSAY_ENDPOINT": "KM", "READING": "3080 µM"}
{"SEQUENCE_VARIANT": "A15G U56A", "ASSAY_ENDPOINT": "KM", "READING": "1700 µM"}
{"SEQUENCE_VARIANT": "A15U U54A", "ASSAY_ENDPOINT": "KM", "READING": "1360 µM"}
{"SEQUENCE_VARIANT": "U55G G66A", "ASSAY_ENDPOINT": "KM", "READING": "1790 µM"}
{"SEQUENCE_VARIANT": "U47C U49G", "ASSAY_ENDPOINT": "KM", "READING": "1240 µM"}
{"SEQUENCE_VARIANT": "A42C C70G", "ASSAY_ENDPOINT": "KM", "READING": "1410 µM"}
{"SEQUENCE_VARIANT": "A42G U47C", "ASSAY_ENDPOINT": "KM", "READING": "6280 µM"}
{"SEQUENCE_VARIANT": "G44U C67A", "ASSAY_ENDPOINT": "KM", "READING": "1130 µM"}
{"SEQUENCE_VARIANT": "A52G U55G", "ASSAY_ENDPOINT": "KM", "READING": "3170 µM"}
{"SEQUENCE_VARIANT": "A39U C71G", "ASSAY_ENDPOINT": "KM", "READING": "3300 µM"}
{"SEQUENCE_VARIANT": "G21U", "ASSAY_ENDPOINT": "KM", "READING": "2090 µM"}
{"SEQUENCE_VARIANT": "A1U U2G A3G A5U", "ASSAY_ENDPOINT": "KM", "READING": "1320 µM"}
{"SEQUENCE_VARIANT": "C16A A42G", "ASSAY_ENDPOINT": "KM", "READING": "2550 µM"}
{"SEQUENCE_VARIANT": "G37C A64G", "ASSAY_ENDPOINT": "KM", "READING": "2450 µM"}
{"SEQUENCE_VARIANT": "C16A", "ASSAY_ENDPOINT": "KM", "READING": "2630 µM"}
{"SEQUENCE_VARIANT": "G40A U49G", "ASSAY_ENDPOINT": "KM", "READING": "1210 µM"}
{"SEQUENCE_VARIANT": "G29C G40A", "ASSAY_ENDPOINT": "KM", "READING": "747 µM"}
{"SEQUENCE_VARIANT": "A14C G29U", "ASSAY_ENDPOINT": "KM", "READING": "1650 µM"}
{"SEQUENCE_VARIANT": "A6U G66U", "ASSAY_ENDPOINT": "KM", "READING": "1280 µM"}
{"SEQUENCE_VARIANT": "G29U U54A", "ASSAY_ENDPOINT": "KM", "READING": "2360 µM"}
{"SEQUENCE_VARIANT": "C11A U31A", "ASSAY_ENDPOINT": "KM", "READING": "1480 µM"}
{"SEQUENCE_VARIANT": "A48G C70U", "ASSAY_ENDPOINT": "KM", "READING": "1840 µM"}
{"SEQUENCE_VARIANT": "U30G A39C", "ASSAY_ENDPOINT": "KM", "READING": "2010 µM"}
{"SEQUENCE_VARIANT": "U30G U46C", "ASSAY_ENDPOINT": "KM", "READING": "1240 µM"}
{"SEQUENCE_VARIANT": "U47G U54G", "ASSAY_ENDPOINT": "KM", "READING": "724 µM"}
{"SEQUENCE_VARIANT": "U54G U57A", "ASSAY_ENDPOINT": "KM", "READING": "1540 µM"}
{"SEQUENCE_VARIANT": "G13C A53U", "ASSAY_ENDPOINT": "KM", "READING": "5250 µM"}
{"SEQUENCE_VARIANT": "A14G A42U", "ASSAY_ENDPOINT": "KM", "READING": "3180 µM"}
{"SEQUENCE_VARIANT": "G32A C71G", "ASSAY_ENDPOINT": "KM", "READING": "1190 µM"}
{"SEQUENCE_VARIANT": "A14C C68U", "ASSAY_ENDPOINT": "KM", "READING": "1460 µM"}
{"SEQUENCE_VARIANT": "U55C U57G", "ASSAY_ENDPOINT": "KM", "READING": "840 µM"}
{"SEQUENCE_VARIANT": "A48G U54G", "ASSAY_ENDPOINT": "KM", "READING": "761 µM"}
{"SEQUENCE_VARIANT": "U31C U47A", "ASSAY_ENDPOINT": "KM", "READING": "1800 µM"}
